# studyTarget: T1, recombinant LILRB1 (human, UniProt Q8NHL6 24-461)
# T1 construct: LILRB1-Fc proteins were also made; also called LILRB1 recombinant proteins
# T1 sequence (Q8NHL6 24-461 limits assumed): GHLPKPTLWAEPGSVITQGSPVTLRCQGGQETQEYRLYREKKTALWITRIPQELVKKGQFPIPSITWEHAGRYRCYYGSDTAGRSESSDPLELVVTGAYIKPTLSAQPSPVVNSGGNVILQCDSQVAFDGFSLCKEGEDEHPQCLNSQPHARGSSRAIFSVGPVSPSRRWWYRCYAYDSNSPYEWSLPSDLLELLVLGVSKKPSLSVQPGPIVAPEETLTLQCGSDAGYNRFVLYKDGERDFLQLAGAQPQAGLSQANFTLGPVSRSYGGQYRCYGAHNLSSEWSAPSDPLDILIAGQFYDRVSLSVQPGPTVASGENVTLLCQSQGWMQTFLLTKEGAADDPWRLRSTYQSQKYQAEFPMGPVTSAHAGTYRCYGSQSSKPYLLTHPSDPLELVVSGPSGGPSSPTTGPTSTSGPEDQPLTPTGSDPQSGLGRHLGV
# test: BLI (Octet RED96), antibody on biosensor, recombinant LILRB1 in solution;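 further: Background-subtracted sensorgrams fitted with a one-to-one binding model, KD taken as koff over kon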
readoutName: kon (M⁻¹ s⁻¹)
The figure you give is taken to be in M⁻¹ s⁻¹; do not add the unit.

Examples with their reported kon follow.
INSERT INTO measurements (binder, testvalue) VALUES
  ('B1-#72-1 (antibody, V domains shown, recombinant rabbit IgG) VH: QSVKESGGGLVQPEGSLALTCKASGIDLSNYWYMCWVRQAPGKGLEWIGCVATDSSRTHYATWAKGRFTVSKTSSTTVTLQMTSLTAADTATYFCARGSGASTNGVWWVMGDGMDLWGPGTLVTISS VL: ELVMTQTPSSVSAAVGGTVTIKCQASPSISTYLSWYQQKPGQPPKRLINRASTLASGVPPRFKGSGAGTQFTLTISDLECADAATYYCQNNYHSGSSNGGGVAFGGGTEVEIK', 75700),
  ('B1-#173-2 (antibody, V domains shown, recombinant rabbit IgG) VH: QSVEESGGDLVKPGASLTLTCTASGFDFSSNAYLCWVRQAPGKGLEWIGCIYDGTSGDTYYANWAKGRFTISRSSSTTVTLQMTSLTAADTATYFCARDTRSSNYYFNLWGPGTLVTISS VL: ELVLTQTPSSTSAAVGGTVTINCQASQSVDNNKQLSWYQQKPGQPPKQLIYSASKLASGVPSRFKGSGSGTQFTLTISDLECDDAATYYCAGYYYSGSATDAWAFGGATEVEIN', 192000),
  ('B1-#209 (antibody, V domains shown, recombinant rabbit IgG) VH: SQSVEESGGDLVKPGGTLTLTCTASRIDLNNYYYISWVRQAPGKGLEWIGVVATDSSVTWYASWAKGQFTISKTSSTTVTLQMTSLTAADTATYFCARGSGAATNGVWWVMGDGMDLWGPGTLVTVSS VL: ELVMTQTPASVSEPVGGTVTIKCQASQSISSYLSWYQQKPGQPPKRLIYKASTLASGVPSRFKGSGSGTEFTLTISGVQCADAATYYCQNNYHSGSSNGGGFAFGGGTEVEIK', 68900);

What does the record list as kon for B1-#41-1 (antibody, V domains shown, recombinant rabbit IgG) VH: QSVKESGGDLVKPGASLTLTCTASGFSFSSSYWICWVRQAPGKGLEWIACIYAGSSGSTYYASWAKGRFTISKTSSTTVTLQMTSLTAADTATYFCARSTSGSYGAGLGLWGPGTLVTISS VL: ELDMTQTASPVSGAVGGTVTIKCQASQNIYNNIGWYQQKPGQPPNLLIYGPSYLASGVPSRFKGSRSGTEYTLTISDLECADAATYYCQSDDWMSISPDIVFGGGTEVEIK ?
320000

What does the record list as kon for B1-#178-2 (antibody, V domains shown, recombinant rabbit IgG) VH: QKQLVESGGGLVQPEGSLALTCTASGFSFSSSYWICWVRQAPGKGLEWIACIYAGSSGSTYYASWVNGRFTVFKTSSTTVTLQMTSLTAADTATYFCARGGTSYRLDLWGPGTLVTVSS VL: ELVLTQTPSSKSVAVGDTVTINCQASDNVYSNNYTSWFQQKPGQPPKQLLYYAAYRASGVPSRFKGSGSGTEFTLSISDVVCDDAATYYCSGHKDYSDDGSTFGGGTEVEIK ?
172000
